target.under.test: human ErbB2, full length, on cells (human, UniProt P04626 23-1255)
assay.protocol: cell-based or functional assay
endpoint.label: % Inhibition @10 µg/ml (n2), ErbB2 phosphorylation in BT474 cells at 48 hours (%)
A number alone suffices; assume %.

Please review the following examples before continuing.
[[record]]
binder = "monoclonal antibody 1.96 (antibody, V domains shown, Fully human IgG (gamma/kappa) from a XenoMouse XM3B-3 hybridoma; constant regions not tied to it) VH: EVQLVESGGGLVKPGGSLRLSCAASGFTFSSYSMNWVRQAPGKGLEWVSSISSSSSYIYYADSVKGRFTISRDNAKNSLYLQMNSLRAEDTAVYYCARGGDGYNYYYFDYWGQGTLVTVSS VL: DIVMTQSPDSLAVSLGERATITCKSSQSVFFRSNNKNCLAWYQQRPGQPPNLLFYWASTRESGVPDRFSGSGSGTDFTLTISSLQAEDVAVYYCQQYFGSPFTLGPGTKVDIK"
unit_annotation = "%"
reported_result = 30

[[record]]
binder = "monoclonal antibody 1.100.1 (antibody, V domains shown, Fully human IgG (gamma/kappa) from a XenoMouse XM3B-3 hybridoma; constant regions not tied to it; also called 1.100.2; 1.100.3) VH: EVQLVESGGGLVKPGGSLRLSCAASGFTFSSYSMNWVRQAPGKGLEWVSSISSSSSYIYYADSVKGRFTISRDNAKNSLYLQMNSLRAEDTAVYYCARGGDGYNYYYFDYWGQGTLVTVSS VL: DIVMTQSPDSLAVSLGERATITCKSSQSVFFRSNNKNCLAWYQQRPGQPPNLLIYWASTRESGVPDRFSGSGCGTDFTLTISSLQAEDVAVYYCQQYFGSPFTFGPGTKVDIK"
unit_annotation = "%"
reported_result = 26

[[record]]
binder = "monoclonal antibody 1.18.1 (antibody, V domains shown, Fully human IgG (gamma/kappa) from a XenoMouse XM3B-3 hybridoma; constant regions not tied to it) VH: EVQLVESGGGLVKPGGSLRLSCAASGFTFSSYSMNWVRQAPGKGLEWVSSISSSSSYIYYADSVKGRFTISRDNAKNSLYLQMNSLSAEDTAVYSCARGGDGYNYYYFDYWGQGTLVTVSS VL: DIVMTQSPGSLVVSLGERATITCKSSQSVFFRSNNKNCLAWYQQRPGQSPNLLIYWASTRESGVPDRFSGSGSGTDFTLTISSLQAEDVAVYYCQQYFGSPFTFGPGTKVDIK"
unit_annotation = "%"
reported_result = 33

[[record]]
binder = "monoclonal antibody 1.39 (antibody, V domains shown, Fully human IgG (gamma/kappa) from a XenoMouse XM3B-3 hybridoma; constant regions not tied to it; also called 1.39.1; 1.39.2) VH: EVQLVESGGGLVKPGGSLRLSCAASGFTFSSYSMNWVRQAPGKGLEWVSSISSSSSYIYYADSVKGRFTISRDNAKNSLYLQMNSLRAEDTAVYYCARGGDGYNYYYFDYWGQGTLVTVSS VL: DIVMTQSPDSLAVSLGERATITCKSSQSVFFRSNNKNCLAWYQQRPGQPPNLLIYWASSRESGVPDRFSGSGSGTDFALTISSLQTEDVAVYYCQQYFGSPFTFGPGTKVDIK"
unit_annotation = "%"
reported_result = 26

[[record]]
binder = "monoclonal antibody 1.20 (antibody, V domains shown, Fully human IgG (gamma/kappa) from a XenoMouse XM3B-3 hybridoma; constant regions not tied to it; also called 1.20.1; 1.19) VH: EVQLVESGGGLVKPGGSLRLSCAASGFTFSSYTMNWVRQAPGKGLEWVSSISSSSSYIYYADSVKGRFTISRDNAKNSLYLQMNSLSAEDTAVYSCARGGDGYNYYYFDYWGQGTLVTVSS VL: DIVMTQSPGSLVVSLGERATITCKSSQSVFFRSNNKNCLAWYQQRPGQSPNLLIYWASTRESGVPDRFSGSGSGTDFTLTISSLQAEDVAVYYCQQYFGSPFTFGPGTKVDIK"
unit_annotation = "%"
reported_result = 28


Let's switch to this binder now.
Per the records, this binder ( monoclonal antibody 1.14.1 (antibody, V domains shown, Fully human IgG (gamma/kappa) from a XenoMouse XM3B-3 hybridoma; constant regions not tied to it) VH: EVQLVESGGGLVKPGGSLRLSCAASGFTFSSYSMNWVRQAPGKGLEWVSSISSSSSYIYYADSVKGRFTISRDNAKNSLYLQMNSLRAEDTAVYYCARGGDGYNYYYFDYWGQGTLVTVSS VL: DIVMTQSPDSLAVSLGERATITCKSSQSVFFRSNNKNCLTWYQQRPGQPPNLLIYWASTRESGVPDRFSGSGSGTDFTLTINNLQAEDVAVYYCQQYFGSPFTFGPGTKVDIK ) has % Inhibition @10 µg/ml (n2), ErbB2 phosphorylation in BT474 cells at 48 hours equal to 45
